# maps each entry to its IC50
- TARGET: sigma receptors
- REPORTED CONDITIONS: T47D cells, 37° C., 1 hr, against [Tc-99m]EN6; read-out: IC50 for inhibition of binding of [Tc-99m]EN6
The figure you give is taken to be in nM; do not add the unit.

INSERT INTO measurements (mol, target, measurement_units, result_value) VALUES
  ('CN(CCc1ccc(Cl)c(Cl)c1)CCN1CCCC1', 'sigma receptors', 'nM', 47);

// moving on: another record for IC50
*Q* Find the recorded IC50 belonging to CN(CCc1ccc(I)cc1)CCN1CCCCC1 and report it.
*A* 59

---

- TARGET: sigma-1 sites (Cavia porcellus)
- Sequence (Q60492 whole entry): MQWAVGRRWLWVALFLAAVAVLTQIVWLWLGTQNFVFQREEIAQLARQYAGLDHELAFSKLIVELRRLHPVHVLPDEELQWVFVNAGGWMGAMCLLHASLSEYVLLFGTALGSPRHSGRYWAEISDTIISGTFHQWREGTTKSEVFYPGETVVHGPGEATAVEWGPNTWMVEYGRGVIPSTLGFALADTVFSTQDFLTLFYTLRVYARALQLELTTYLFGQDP
PARAMETER: Ki (nM)
Expressed in nM, but write only the number.

*Q* Lookup: Ki / sigma-1 sites (Cavia porcellus) / CN(CCc1ccc(I)cc1)CCN1CCCCC1
*A* 0.82
